- System: MDA-MB-231 cells
- Test: Sulforhodamine B (SRB) cell viability assay, MDA-MB-231
- Format: cell-based, human
- Condition Parameters: MDA-MB-231 versus BJ-5ta
Property Measured: Selectivity Index Cell Line IC50/BJ-5ta IC50

molecule="CCCNc1cc2oc3cc(=NCC)c(C)cc-3nc2c2ccccc12 [C9]" readout_value=2.14
molecule="CCCNc1cc2oc3cc(=[N+](CCC)CCC)ccc-3nc2c2ccccc12 [A36]" readout_value=2.41
molecule="ClCCCN=c1cc2oc3c4c5c(cc3nc-2c2ccccc12)CCCN5CCC4 [A42]" readout_value=3.26
molecule="CCN=c1cc2oc3cc(NCCCC(=O)OCC)c4ccccc4c3nc-2cc1C [BaP1]" readout_value=1.05
